- Test system: Two-spotted spider mite (Tetranychus urticae)
- experiment-summary: Acaricidal action on two-spotted spider mite (kidney bean leaf disk spray)
- Type: in vivo
- study-conditions: 500 ppm, adult females, 25° C., two days after treatment
endpoint-label: acaricidal efficacy (corrected mortality rate), activity level

Recorded acaricidal efficacy (corrected mortality rate), activity level, per entry:
>  <smiles-notation>
CCS(=O)(=O)n1c(-n2cc(Cl)c(C(F)(F)F)n2)nc2ccccc21

>  <result>
D or higher

$$$$
>  <smiles-notation>
CCS(=O)(=O)n1c(-n2cnc(C(F)(F)C(F)(F)F)n2)nc2ccccc21

>  <result>
D or higher

$$$$
>  <smiles-notation>
CCS(=O)(=O)n1c(-n2cc(/C=C/C(=O)NCC(F)(F)F)c(C(F)(F)F)n2)nc2ccccc21

>  <result>
D or higher

$$$$
>  <smiles-notation>
CCS(=O)(=O)n1c(-n2cc(CCCOC(=O)C(C)(C)C)c(C(F)(F)F)n2)nc2ccccc21

>  <result>
D or higher

$$$$
>  <smiles-notation>
CCc1cn(-c2nc3ccccc3n2S(=O)(=O)CC)nc1C(F)(F)F

>  <result>
D or higher

$$$$
>  <smiles-notation>
CCS(=O)(=O)n1c(-n2cc(C(=O)OC(C)(C)C)c(C#Cc3ccccc3)n2)nc2ccccc21

>  <result>
D or higher

$$$$

Lookup: Tell us which acaricidal efficacy (corrected mortality rate), activity level value is on record for `CCS(=O)(=O)n1c(-n2cc(/C=C/C(=O)OC(C)(C)C)c(C(F)(F)F)n2)nc2ccccc21`
Found: D or higher

Lookup: Tell us which acaricidal efficacy (corrected mortality rate), activity level value is on record for `CCS(=O)(=O)n1c(-n2ccc(OCCCC(=O)OC(C)(C)C)n2)nc2ccccc21`
Found: D or higher
